# Tested on: GCT (Other Solid Carcinomas)
# Experiment Description: Bliss excess, mean over the matrix (fraction); higher = more synergy
Provide the recorded Bliss excess for the entries that follow.
One number for each entry.

1) Cc1c2c(nn1C)CSCc1cc(n(C)n1)CSc1cc(c3ccccc3c1)OCCCc1c(C(=O)O)n(C)c3c-2c(Cl)ccc13 [AZD5991] + C[C@@H]1COCCN1C2=NC(=NC(=C2)C3(CC3)[S@](=N)(=O)C)C4=C5C=CNC5=NC=C4 [AZD6738] (first compound max 1 µM, 7x7, partner max 10 µM) = 0.06
2) CC1(C)CCC(CN2CCN(c3ccc(C(=O)NS(=O)(=O)c4ccc(NCC5CCOCC5)c([N+](=O)[O-])c4)c(Oc4cnc5[nH]ccc5c4)c3)CC2)=C(c2ccc(Cl)cc2)C1 [Venetoclax] + CCN(CCO)CCCOc1ccc2c(Nc3cc(CC(=O)Nc4cccc(F)c4)[nH]n3)ncnc2c1 [AZD2811] (first compound max 1 µM, 7x7, partner max 1 µM) = -0.004

Below: the item to evaluate.
Ask: Check the records and state Bliss excess for C=CCn1c(=O)c2cnc(Nc3ccc(N4CCN(C)CC4)cc3)nc2n1-c1cccc(C(C)(C)O)n1 [AZD1775] + C[C@@H]1COCCN1C2=NC(=NC(=C2)C3(CC3)[S@](=N)(=O)C)C4=C5C=CNC5=NC=C4 [AZD6738] (first compound max 1 µM, partner max 10 µM)
Result: 0.0157

---

# Test system: NCI-H841 (Small Cell Lung Carcinoma)
# Experiment Description: combination Emax (second highest fraction inhibited in the dose matrix, 72 h); higher = more inhibition; extreme values may be limits of the assay
Attribute Measured: combination Emax

Please review the entries below; each comes with its answer.
1. N#Cc1cnc(Nc2cc(NC[C@H]3CNCCO3)c(C(F)(F)F)cn2)cn1 [SRA737] + O=c1[nH]cc(F)c(=O)[nH]1 [5-Fluorouracil] (first compound max 10 µM, 7x7, partner max 20 µM) = 0.183
2. N#Cc1cnc(Nc2cc(NC[C@H]3CNCCO3)c(C(F)(F)F)cn2)cn1 [SRA737] + Nc1ccn([C@@H]2O[C@H](CO)[C@@H](O)C2(F)F)c(=O)n1 [Gemcitabine] (first compound max 10 µM, 7x7, partner max 0.3 µM) = 0.818
3. O=C(c1cc(Cc2n[nH]c(=O)c3ccccc23)ccc1F)N1CCN(C(=O)C2CC2)CC1 [Olaparib] + CC1(C)CCC(CN2CCN(c3ccc(C(=O)NS(=O)(=O)c4ccc(NCC5CCOCC5)c([N+](=O)[O-])c4)c(Oc4cnc5[nH]ccc5c4)c3)CC2)=C(c2ccc(Cl)cc2)C1 [Venetoclax] (first compound max 10 µM, 7x7, partner max 1 µM) = 0.0548
4. CN(CCO)CC[C@H](CSc1ccccc1)Nc1ccc(S(=O)(=O)NC(=O)c2ccc(N3CCC([C@@H](O)c4ccccc4-c4ccc(Cl)cc4)CC3)cc2)cc1S(=O)(=O)C(F)(F)F [AZD4320] + CS(=O)(=O)CCNCc1ccc(-c2ccc3ncnc(Nc4ccc(OCc5cccc(F)c5)c(Cl)c4)c3c2)o1 [Lapatinib] (first compound max 1 µM, 7x7, partner max 10 µM) = 0.237

// for each compound below, give its combination Emax
1. NC1(C(=O)N[C@@H](CCO)c2ccc(Cl)cc2)CCN(c2ncnc3[nH]ccc23)CC1 [Capivasertib] + CCN(CCO)CCCOc1ccc2c(Nc3cc(CC(=O)Nc4cccc(F)c4)[nH]n3)ncnc2c1 [AZD2811] (first compound max 10 µM, 7x7, partner max 1 µM)
2. CC1(C)CCC(CN2CCN(c3ccc(C(=O)NS(=O)(=O)c4ccc(NCC5CCOCC5)c([N+](=O)[O-])c4)c(Oc4cnc5[nH]ccc5c4)c3)CC2)=C(c2ccc(Cl)cc2)C1 [Venetoclax] + CS(=O)(=O)CCNCc1ccc(-c2ccc3ncnc(Nc4ccc(OCc5cccc(F)c5)c(Cl)c4)c3c2)o1 [Lapatinib] (first compound max 1 µM, 7x7, partner max 10 µM)
3. COc1nnc2ccc(N3CCC(c4ccc(OCCN5CCN(C)C(=O)[C@H]5C)cc4)CC3)nn12 [AZD5153] + Cn1cnc2c(F)c(Nc3ccc(Br)cc3Cl)c(C(=O)NOCCO)cc21 [Selumetinib] (first compound max 1 µM, 7x7, partner max 10 µM)
4. COc1nnc2ccc(N3CCC(c4ccc(OCCN5CCN(C)C(=O)[C@H]5C)cc4)CC3)nn12 [AZD5153] + Cc1c2c(nn1C)CSCc1cc(n(C)n1)CSc1cc(c3ccccc3c1)OCCCc1c(C(=O)O)n(C)c3c-2c(Cl)ccc13 [AZD5991] (first compound max 1 µM, 7x7, partner max 1 µM)

Result:
1: 0.426; 2: 0.13; 3: 0.328; 4: 0.565

---

# Tested on: A101D (Melanoma)
# Experiment Description: Bliss excess, mean over the matrix (fraction); higher = more synergy
Provide the recorded Bliss excess for the entries that follow.
Answers are plain numbers.

1. CN(CCO)CC[C@H](CSc1ccccc1)Nc1ccc(S(=O)(=O)NC(=O)c2ccc(N3CCC([C@@H](O)c4ccccc4-c4ccc(Cl)cc4)CC3)cc2)cc1S(=O)(=O)C(F)(F)F [AZD4320] + C[C@@H](Nc1cc(F)cc(F)c1)c1cc(C(=O)N(C)C)cc2c(=O)cc(N3CCOCC3)oc12 [AZD8186] (first compound max 1 µM, 7x7, partner max 3 µM) = 0.0831
2. CC(=O)c1c(C)c2cnc(Nc3ccc(N4CCNCC4)cn3)nc2n(C2CCCC2)c1=O [Palbociclib] + Cn1cnc2c(F)c(Nc3ccc(Br)cc3Cl)c(C(=O)NOCCO)cc21 [Selumetinib] (first compound max 10 µM, 7x7, partner max 10 µM) = -0.0907
3. CC1(C)CCC(CN2CCN(c3ccc(C(=O)NS(=O)(=O)c4ccc(NCC5CCOCC5)c([N+](=O)[O-])c4)c(Oc4cnc5[nH]ccc5c4)c3)CC2)=C(c2ccc(Cl)cc2)C1 [Venetoclax] + Cc1cc2ncnn2cc1Nc1ncc2c(n1)n(C1CCOCC1)c(=O)n2C [AZD7648] (first compound max 1 µM, 7x7, partner max 10 µM) = -0.0394

// for each compound below, give its Bliss excess
1. Cc1c2c(nn1C)CSCc1cc(n(C)n1)CSc1cc(c3ccccc3c1)OCCCc1c(C(=O)O)n(C)c3c-2c(Cl)ccc13 [AZD5991] + C[C@@H](Nc1cc(F)cc(F)c1)c1cc(C(=O)N(C)C)cc2c(=O)cc(N3CCOCC3)oc12 [AZD8186] (first compound max 1 µM, 7x7, partner max 3 µM)
2. CC1(C)CCC(CN2CCN(c3ccc(C(=O)NS(=O)(=O)c4ccc(NCC5CCOCC5)c([N+](=O)[O-])c4)c(Oc4cnc5[nH]ccc5c4)c3)CC2)=C(c2ccc(Cl)cc2)C1 [Venetoclax] + C1CN(CCC1(C(=O)N[C@@H](CCO)C2=CC=C(C=C2)Cl)N)C3=NC=NC4=C3C=CN4 [Capivasertib] (first compound max 1 µM, 7x7, partner max 3 µM)
3. CN(CCO)CC[C@H](CSc1ccccc1)Nc1ccc(S(=O)(=O)NC(=O)c2ccc(N3CCC([C@@H](O)c4ccccc4-c4ccc(Cl)cc4)CC3)cc2)cc1S(=O)(=O)C(F)(F)F [AZD4320] + Cn1cnc2c(F)c(Nc3ccc(Br)cc3Cl)c(C(=O)NOCCO)cc21 [Selumetinib] (first compound max 1 µM, 7x7, partner max 3 µM)
4. CN(C)CCCOc1ccc(-c2ccc3ncc4c(c3c2)n(C2CCOCC2)c(=O)n4C)cn1 [AZD0156] + C=CCn1c(=O)c2cnc(Nc3ccc(N4CCN(C)CC4)cc3)nc2n1-c1cccc(C(C)(C)O)n1 [AZD1775] (first compound max 1 µM, partner max 1 µM)
5. CC(=O)c1c(C)c2cnc(Nc3ccc(N4CCNCC4)cn3)nc2n(C2CCCC2)c1=O [Palbociclib] + CC1(C)CCC(CN2CCN(c3ccc(C(=O)NS(=O)(=O)c4ccc(NCC5CCOCC5)c([N+](=O)[O-])c4)c(Oc4cnc5[nH]ccc5c4)c3)CC2)=C(c2ccc(Cl)cc2)C1 [Venetoclax] (first compound max 10 µM, 7x7, partner max 1 µM)

Result:
-0.0318
-0.0652
-0.0099
-0.0616
-0.0025

---

# Test system: LU-165 (Small Cell Lung Carcinoma)
# Experiment Description: Bliss excess, mean over the matrix (fraction); higher = more synergy
Provide the recorded Bliss excess for the entries that follow.
Give bare numbers.

Please review the entries below; each comes with its answer.
1) CN(CCO)CC[C@H](CSc1ccccc1)Nc1ccc(S(=O)(=O)NC(=O)c2ccc(N3CCC([C@@H](O)c4ccccc4-c4ccc(Cl)cc4)CC3)cc2)cc1S(=O)(=O)C(F)(F)F [AZD4320] + Cn1cnc2c(F)c(Nc3ccc(Br)cc3Cl)c(C(=O)NOCCO)cc21 [Selumetinib] (first compound max 1 µM, 7x7, partner max 3 µM) = -0.0155
2) CN(C)CCCOc1ccc(-c2ccc3ncc4c(c3c2)n(C2CCOCC2)c(=O)n4C)cn1 [AZD0156] + CCN(CCO)CCCOc1ccc2c(Nc3cc(CC(=O)Nc4cccc(F)c4)[nH]n3)ncnc2c1 [AZD2811] (first compound max 1 µM, 7x7, partner max 1 µM) = -0.04

Ask: Report the value of Bliss excess obtained on LU-165 (Small Cell Lung Carcinoma) for Cc1c2c(nn1C)CSCc1cc(n(C)n1)CSc1cc(c3ccccc3c1)OCCCc1c(C(=O)O)n(C)c3c-2c(Cl)ccc13 [AZD5991] + CC1(C)CCC(CN2CCN(c3ccc(C(=O)NS(=O)(=O)c4ccc(NCC5CCOCC5)c([N+](=O)[O-])c4)c(Oc4cnc5[nH]ccc5c4)c3)CC2)=C(c2ccc(Cl)cc2)C1 [Venetoclax] (first compound max 1 µM, 7x7, partner max 1 µM) .
Result: -0.014
